study system: T1, human ASGR-1 (wild type) (human, UniProt P07306 1-291)
T1 construct: also called wt ASGR1; huASGR-1
T1 sequence: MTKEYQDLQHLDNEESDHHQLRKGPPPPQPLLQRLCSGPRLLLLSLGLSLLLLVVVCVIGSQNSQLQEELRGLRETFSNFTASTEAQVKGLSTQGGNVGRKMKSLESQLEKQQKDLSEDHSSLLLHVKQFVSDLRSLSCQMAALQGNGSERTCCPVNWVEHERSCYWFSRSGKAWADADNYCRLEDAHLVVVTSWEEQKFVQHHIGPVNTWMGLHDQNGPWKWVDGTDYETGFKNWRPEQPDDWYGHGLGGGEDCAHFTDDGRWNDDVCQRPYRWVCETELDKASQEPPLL
experiment notes: FACS, transfected CHO-S cells, mAb 5 ug/ml
readout type: FACS Binding Geomean
Respond numerically, and do not add a unit to the figure.

Sample records with FACS Binding Geomean:
Tell me measured FACS Binding Geomean for 194C1 (antibody, V domains shown, mAb) VH: QVQLVESGGGVVQPGRSLRLSCAASGFTFSSYGMHWVRQAPGKGLEWVAVIWYDGSNEHYADSVKGRFTISRDNSKNTLYLQMNSLRAEDTAVYYCARNRGVGYYGLDVWGQGTTVTVSS VL: DIQMTQSPSSLSASVGDRVTITCRASQGISNYLAWFQQKPGKAPKSLIYAASSLQSGVPSKFSGSGSGTDFTLTISSLQPEDFATYYCLHYLTYPLTFGGGTKVEIK please.
20900

Tell me measured FACS Binding Geomean for 72F5 (antibody, V domains shown, mAb) VH: EVQLLESGGGLVQPGGSLRLSCAASGFTFSSYAMIWVRQAPGKGLEWVSTISGSGGYTYSADSVKGRFTISRDNSKNTLYLQMNSLRAEDTAVYYCARRIAVTGTEWYDPWGQGTLVTVSS VL: DIQMTQSPSSLSASVGDRVIIPCRASQNISSYLNWYQQKPGKAPKLLIYAASSLQSGVPSRFSGSGSGTDFTLTISSLQPEDFATYSCQQTYSTPTFGQGTRLDIN please.
28000

Tell me measured FACS Binding Geomean for 6G7 (antibody, V domains shown, mAb) VH: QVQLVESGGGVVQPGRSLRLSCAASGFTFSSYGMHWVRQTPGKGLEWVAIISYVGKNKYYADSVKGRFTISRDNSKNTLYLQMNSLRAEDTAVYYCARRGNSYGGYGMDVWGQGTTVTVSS VL: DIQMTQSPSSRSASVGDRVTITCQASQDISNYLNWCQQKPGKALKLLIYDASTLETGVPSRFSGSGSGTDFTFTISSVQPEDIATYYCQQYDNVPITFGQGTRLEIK please.
38600

Tell me measured FACS Binding Geomean for 151B9 (antibody, V domains shown, mAb) VH: EVQLLESGGGLVQPGGSLRLSCAASGFTFSSYAMSWVRQAPGKGLEWVSVISGGGSSTYYADSVKGRFTISRDNSKNTLYLQMNSLRAEDTAVYYCAKWRGNPTDYGMDVWGQGTTVTVSS VL: SYELTQPPSVSVSPGQTASIACSGDNLGDKYASWYQQKPGQSPVLVIYQDSKRPSGIPERFSGSNSGNTATLTISGIQAMDEADYYCQAWDSSTVVFGGGTKLTVL please.
23500

Tell me measured FACS Binding Geomean for 61A1 (antibody, V domains shown, mAb) VH: QVQLQESGPGLVKPSETLSLTCTVSGGSISSHFWSWIRQPAGKGLEWIGRIYIRGSTNYNPSLKSRVTMSVDTSKNQFSLKLSSVTAADTAVYYCAREGKTGGVSYFDYWGQGTLVTVSS VL: DIQMTQSPSSLSASVGDRVTITCRASQSISSYLNWYQQKPGKAPKLLIYAASSLQSGVPSRFSGSGSGTDFTLTISSLQPEDFAPYYCQQSYNISFTFGPGTKVDIK please.
40000

Tell me measured FACS Binding Geomean for 176H4 (antibody, V domains shown, mAb) VH: QVQLVESGGGVVQPGRSLRLSCAASGFTFSSYGMHWVRQAPGKGLEWVAIIWYDGSYKYYADSVKGRFTISRDNSKNTLYLQMSSLRAEDTAVYYCARDAHDFWSGYFAYWGQGALVTVSS VL: DIVMTQTPLSLSVTPGQPASISCKSSQSLLHGDGKTYLYWYLQKPGQPPQLLIYEVSNRFSGVPDRFSGSGSGTDFTLKISRVEAEDVGIYYCMQSIQIPWTFGQGTRVEIK please.
33500

Tell me measured FACS Binding Geomean for 22G5 (antibody, V domains shown, mAb) VH: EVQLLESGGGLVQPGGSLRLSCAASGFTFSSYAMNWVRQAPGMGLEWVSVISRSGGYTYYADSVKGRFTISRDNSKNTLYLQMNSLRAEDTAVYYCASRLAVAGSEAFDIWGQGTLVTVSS VL: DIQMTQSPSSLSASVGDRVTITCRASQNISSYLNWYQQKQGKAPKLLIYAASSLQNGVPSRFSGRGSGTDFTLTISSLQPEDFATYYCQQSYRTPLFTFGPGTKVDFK please.
45000

Tell me measured FACS Binding Geomean for 199A7 (antibody, V domains shown, mAb) VH: QVQLVESGGGVVQPGRSLRLSCAASGFTFSNYGMHWVRQAPGKGLEWVAIIWFDGSNKYYADSVKGRFTISRDNSKNTLFLQMSSLRAEDTAVYYCAREWLQFRYYYGMDVWGQGTTVTVSS VL: DIQMTQSPSSLSASVGDRVTITCRASQGIRKDLGWYQQKPGKAPKRLIYAASSLQSGVPSRFSGSGSGTEFTLTISSLQPEDFATYVCLQHYRYPFTFGPGTKVDFK please.
17000

Continuing:
Tell me measured FACS Binding Geomean for 85F7 (antibody, V domains shown, mAb) VH: QVQLQQWGAGLLKPSEPLSLTCAVYGGSFSGPYWSWIRQPPGKGLEWIGEINHSGSTNYNPSLKSRVTISVDTSKNQFSLKLTSVTAADTAVYYCARDYGGLDVWGQGTTVTVSS VL: EPVLTQSPGTLSLSPGERATLSCRASQNIYSNYLAWYQQKPGQAPRLLIYGASSRATGIPDRFSGSGSGTDFTLTISRLEPEDFAVYCCQQYESSPWTFGQGTKVEIK please.
33000

Tell me measured FACS Binding Geomean for 45B4 (antibody, V domains shown, mAb) VH: QVQLVESGGGVVQPGRSLRLSCAASGFTFSDCVMHWVRQAPGKGLEWVAVIWYDGSNKYYADSVKGRFTISRDNSKNTLYLQMNSLRAEDTAVYYCARERYSSGLYDYGMDVWGQGTTVTVSS VL: DIQMTQSPSSLSASVGDRVTFTCRASQGIRDDLGWYQQKPGKAPKRLIYAASSLQSGVPSRFSGSGSGTEFTLTISSLQPEDFATYYCLQHYSYPRTFGQGTKVEIK please.
30400
